test: inhibition of 3D7 malaria parasite growth – strain 3D7 (AID 2306);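 note: 0% = DMSO wells and 100% = chloroquine plus artemisinin control wells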; conditions: P. falciparum 3D7 erythrocytic growth, LDH absorbance, 72 h; at 2 µM; hits give high values
Reported growth inhibition values follow for various compounds

[
  {
    "Compound": "CN1CCCN(Cc2cccc(-c3cccc(NC(=O)c4ccc(C#N)cc4)c3)c2)CC1",
    "growth inhibition [%]": 89
  },
  {
    "Compound": "CCNC(=O)c1cc(S(=O)(=O)N2CCN(c3ccccn3)CC2)cs1",
    "growth inhibition [%]": 97
  },
  {
    "Compound": "Nc1ccc(-c2nc3c(ccc4ccccc43)[nH]2)cc1",
    "growth inhibition [%]": 84
  },
  {
    "Compound": "Cc1ccc(O)c(-c2cc(C(=O)Nc3ccc(S(=O)(=O)N4CCCC(C)C4)cc3)[nH]n2)c1 (stereo not drawn)",
    "growth inhibition [%]": 96
  },
  {
    "Compound": "COc1ccc2nc(N3CCN(C(=O)OC(C)(C)C)CC3)nc(NCCCc3ccccc3)c2c1",
    "growth inhibition [%]": 102
  },
  {
    "Compound": "Brc1cc(CNCCCNc2nc3ccccc3[nH]2)sc1Br",
    "growth inhibition [%]": 100
  },
  {
    "Compound": "CCOC(=O)N1CCN(CCCNc2c3ccccc3nc3ccccc23)CC1",
    "growth inhibition [%]": 90
  },
  {
    "Compound": "CCc1cc2c3c(N)nc(N)nc3ccc2n1C(CC)CC",
    "growth inhibition [%]": 96
  },
  {
    "Compound": "O=C(Nc1cccc(CN2CCN(C(=O)c3ccccc3)CC2)c1)c1ccco1",
    "growth inhibition [%]": 95
  },
  {
    "Compound": "Nc1nc(N)c2c(ccc3c2ccn3Cc2cc3c(cc2Cl)OCO3)n1",
    "growth inhibition [%]": 95
  },
  {
    "Compound": "CC(CNc1nc(NCC(c2ccccc2)c2ccccc2)c2[nH]cnc2n1)c1ccccc1 (stereo not drawn)",
    "growth inhibition [%]": 93
  },
  {
    "Compound": "COc1cc2nccc(Nc3ccc(OCc4ccccc4)cc3)c2cc1OC",
    "growth inhibition [%]": 101
  },
  {
    "Compound": "Cc1cc2c(NC(=O)NC3CCN(CCc4ccccc4Cl)CC3)cccc2cn1",
    "growth inhibition [%]": 102
  }
]

---

assay: antimalarial activity against Dd2 strain (AID 2302);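 note: 0% = DMSO untreated growth and 100% = chloroquine plus artemisinin killed control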; conditions: P. falciparum Dd2 in RBCs, LDH growth readout, 72 h; at 2 µM; hits give high values
Readout: growth inhibition (%)

[
  {
    "Compound Structure": "COc1cccc(CNc2ncc(-c3ccsc3)c(-c3nccs3)n2)c1",
    "Readout": "growth inhibition",
    "Measurement": 82
  },
  {
    "Compound Structure": "c1ccc(CCNCc2ccc(-c3cccc(CNc4ccc5ncccc5c4)c3)cc2)cc1",
    "Readout": "growth inhibition",
    "Measurement": 17
  },
  {
    "Compound Structure": "CN1CCC(N2CCC(Oc3cccc(C(=O)NCCCC4CCCC4)c3)CC2)CC1",
    "Readout": "growth inhibition",
    "Measurement": 48
  }
]

---

test: human hepatoma cell viability loss – ATP luminescence, cytotoxicity control for P. falciparum antimalarial project, primary screen (AID 2303); conditions: HepG2 viability, 24-48 h, at 10 µM;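 note: 0% = DMSO wells and 100% = digitonin-killed cells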
Calls of active or inactive are those of the source.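 How the source made its calls: active means inhibition above 50%; inactive means the rest.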
Outcome codes: label 1 for active, label 0 for inactive

[
  {
    "Molecule": "Fc1cccc(COc2ccc(Nc3ncnc4ccc(-c5nnc(C(F)(F)F)o5)cc34)cc2Cl)c1",
    "Category Label": "label 0"
  },
  {
    "Molecule": "COc1ccc2nccc([C@@H](O)CN3CCC(NCc4ccc5cccc(O)c5n4)CC3)c2n1",
    "Category Label": "label 0"
  },
  {
    "Molecule": "CCCCc1cc(NCc2ccncc2)nc(Nc2ccc(C)cc2)n1",
    "Category Label": "label 0"
  },
  {
    "Molecule": "COc1cc2nccc(Nc3cc(C)cc(O)c3)c2cc1OC",
    "Category Label": "label 0"
  },
  {
    "Molecule": "CC[C@H](C)CNCc1ccc(OCc2cccc(COc3ccc(CNC[C@@H](C)CC)cc3I)c2)c(I)c1",
    "Category Label": "label 1"
  },
  {
    "Molecule": "COc1cc(OC)c(OC)cc1CN1CCC2(CC1)CN(Cc1ccc(Cl)c(Cl)c1)C(=O)O2",
    "Category Label": "label 0"
  },
  {
    "Molecule": "Oc1ccccc1CCNC1CCc2ccccc2C1 (centres undefined)",
    "Category Label": "label 0"
  },
  {
    "Molecule": "CN(C)c1ccc2c(c1)Sc1cc(N(C)C)ccc1N2C(=O)c1cccc(C(=O)O)c1",
    "Category Label": "label 0"
  },
  {
    "Molecule": "Cc1cc(-c2ccc(NC(=O)N3CCc4cc(Cl)c(N5CCN(C)CC5)cc43)cc2)ccc1C#N",
    "Category Label": "label 1"
  },
  {
    "Molecule": "O=C(c1ccc(Cl)cc1)N1CCCC(C(=O)N(Cc2nnc(-c3ccccc3Cl)o2)C2CC2)C1 (centres undefined)",
    "Category Label": "label 0"
  },
  {
    "Molecule": "COc1ccc2c(OC)ccc(CNCCCCCCNCc3ccc(OC)c4ccc(OC)cc34)c2c1",
    "Category Label": "label 1"
  },
  {
    "Molecule": "COc1cc2c(cc1S(=O)(=O)c1ccc(COc3ccc(C(F)(F)F)cc3)cc1)CNCC2",
    "Category Label": "label 0"
  },
  {
    "Molecule": "CCn1cc(CN2CCCC(C(=O)Nc3ccc(-c4nc5ccccc5[nH]4)cc3)C2)cn1 (centres undefined)",
    "Category Label": "label 0"
  },
  {
    "Molecule": "CN(C)CCc1coc2ccc(C(=O)Nc3ccc(-c4ccc(O)cc4)cc3)cc12",
    "Category Label": "label 0"
  },
  {
    "Molecule": "CCCN(CCC)C(=O)c1cc(C(=O)N[C@@H](Cc2ccccc2)[C@H](O)CNCc2cccc(C(F)(F)F)c2)cc(N2CCCCS2(=O)=O)c1",
    "Category Label": "label 0"
  },
  {
    "Molecule": "COc1cc(NC(=O)c2sc(-c3ccc(Cl)cc3)cc2NC(=O)c2cccc(N(C)C)c2)ccc1OCCN1CCCC1",
    "Category Label": "label 0"
  },
  {
    "Molecule": "COc1cccc2c(NCCNc3ccnc4c(OC)cccc34)ccnc12",
    "Category Label": "label 0"
  },
  {
    "Molecule": "CCCCCc1cc(OC(=O)CCCN(CC)CC)c2c(c1)OC(C)(C)C=C2C1=CCN(Cc2ccc3ccccc3c2)CC1",
    "Category Label": "label 1"
  },
  {
    "Molecule": "CCC(C)NCCC(c1ccccc1)c1ccccc1O (centres undefined)",
    "Category Label": "label 0"
  },
  {
    "Molecule": "CC(Cc1ccc(CNC(=O)NCc2ccc(CC(C)NCCc3cccc(Cl)c3)cc2)cc1)NCCc1cccc(Cl)c1 (centres undefined)",
    "Category Label": "label 1"
  },
  {
    "Molecule": "O=C(Nc1cccc(F)c1)NC1CCN(CCCCCNC(=O)[C@@H]2C[C@H]2c2ccc(Cl)c(Cl)c2)CC1",
    "Category Label": "label 0"
  },
  {
    "Molecule": "CN(C)CCN(C)Cc1cccc(-c2cccc(NC(=O)c3cccc(C#N)c3)c2)c1",
    "Category Label": "label 0"
  },
  {
    "Molecule": "CCCCCCn1c(Sc2ccc(C#N)c([N+](=O)[O-])c2)nnc1-c1ccc(OC)cc1",
    "Category Label": "label 0"
  },
  {
    "Molecule": "CCOc1ccc(NC(C)=O)c(O)c1",
    "Category Label": "label 0"
  },
  {
    "Molecule": "CN1CCN(CCCN(Cc2cccc(-c3ccc(CNC4CCCC4)cc3)c2)C(=O)CCC2CCCC2)CC1",
    "Category Label": "label 0"
  },
  {
    "Molecule": "Cc1[nH]c2ccccc2c1C(=O)CSc1nn(-c2ccccc2)c(=S)s1",
    "Category Label": "label 0"
  },
  {
    "Molecule": "N#Cc1ccc2c(c1)CCN(CCC1CCC(NC(=O)c3cc4ccc(Cl)cc4[nH]3)CC1)C2 (centres undefined)",
    "Category Label": "label 0"
  },
  {
    "Molecule": "O=S(=O)(NCCN1CCCC1)c1ccc(-c2ccc(CNCc3ccc(F)cc3)cc2)s1",
    "Category Label": "label 0"
  },
  {
    "Molecule": "O=C(C=Cc1ccccc1)Nc1ccc(C#CC=Cc2ccc(NC(=O)C=Cc3ccccc3)cc2)cc1",
    "Category Label": "label 0"
  },
  {
    "Molecule": "Cc1cccc(CNc2nc(C)cc(N[C@@H](Cc3ccccc3)C(=O)NCCOc3ccccc3)n2)c1",
    "Category Label": "label 0"
  },
  {
    "Molecule": "CCc1nonc1NC(=O)c1oc2c(C)c(C)ccc2c1C",
    "Category Label": "label 0"
  },
  {
    "Molecule": "CC(C)NCc1cccc(-c2ccc(NC(=O)c3ccc(F)cc3)cc2)c1",
    "Category Label": "label 0"
  },
  {
    "Molecule": "COc1cc2nc(NCCCN3CCCCC3)nc(NCc3ccccc3)c2cc1OC",
    "Category Label": "label 0"
  },
  {
    "Molecule": "CC(C)N(Cc1ccc(-c2ccc(C(F)(F)F)cc2)cc1)C(=O)Cn1c(CCc2cccc(F)c2F)cc(=O)c2ccc(CCCN3CCCCC3)cc21",
    "Category Label": "label 1"
  }
]
